TGI for assorted molecules
- Test system: BT-549 breast
- assay notes: NCI tumour cell line growth inhibition, 48 h
Numeric answer only, unit µM assumed.

Worked cases, TGI given:
{"columns": ["molecule", "TGI / µM"],
 "data": [
  ["O=C(/C=C/c1ccc(O)c(O)c1)N1CCN(c2ccc(Cl)cc2)CC1", 45.6],
  ["Nc1ccc(CC[C@H]2CCC/C=C/[C@@H]3C[C@H](O)C[C@H]3[C@H](O)/C=C/C(=O)O2)cc1", 16.1],
  ["[O]=[Sn]([CH]1CCCCC1)[CH]1CCCCC1", 0.588],
  ["Cc1cc(N2CCC(N3CCCC3)CC2)nc(/N=C(\\N)Nc2ccc(Cl)c(Cl)c2)n1", 6.37],
  ["COC(=O)[C@@H]1c2c(oc3cc(CO)cc(O)c3c2=O)C=C[C@H]1O", 12.4],
  ["COC1C(OC(=O)c2ccc(C)[nH]2)C(O)C(Oc2ccc3c(O)c(NC(=O)c4ccc(O)c(CC=C(C)C)c4)c(=O)oc3c2Cl)OC1(C)C (stereo not drawn)", 42.5]
]}

With those in mind, consider the next molecule.
IN: Requested read-out TGI, target or system BT-549 breast, entry "CCOC(=O)Cc1c(C(=O)OCC)[n+](=O)c2cc(Cl)c(Cl)cc2n1[O-]"
OUT: 6.53

* * *

GI50 for assorted compounds
- Tested on: UO-31 renal
- assay notes: NCI tumour cell line growth inhibition, 48 h

IN: // GI50 lookup, key: "CN(C)CCCN1c2ccccc2Sc2ccc(C(F)(F)F)cc21"
OUT: 1.48 µM

IN: // GI50 lookup, key: CC[C@H](C)[C@H](NC(=O)C12C3C4C1C1C2C3C41NC)C(=O)N(C)[C@H](C[C@@H](OC(C)=O)c1nc(C(=O)N[C@@H](Cc2ccccc2)C[C@H](C)C(=O)OC)cs1)C(C)C (some centres undefined)
OUT: 4.16 µM

IN: // GI50 lookup, key: "CCCCNc1ncnc2c1cnn2-c1ccccc1"
OUT: 7.44 µM

IN: // GI50 lookup, key: "CCn1cc(C(=O)O)c(=O)c2cc(F)c(N3CCN(S(=O)(=O)c4ccc(Cl)cc4Cl)CC3)cc21"
OUT: 2.2 µM

* * *

- Test system: KM12 colon
- assay notes: NCI tumour cell line growth inhibition, 48 h
TGI for assorted compounds
Numeric answer only, unit µM assumed.

{"columns": ["compound", "unit", "TGI"],
 "data": [
  ["NNc1c(C(N)=O)c2c(N)ncnc2n1C1OC(CO)C(O)C1O (stereo not given)", "µM", 12.4]
]}

IN: // TGI lookup, key: "Cc1c2cc[n+](Cc3ccc(I)cc3)cc2c(C)c2c1[nH]c1ccccc12"
OUT: 1.83

IN: // TGI lookup, key: "CN(CCN)[C@H](CSSC[C@@H](c1ccccc1O)N(C)CCN)c1ccccc1O"
OUT: 28.2

IN: // TGI lookup, key: "CCc1ccc2c(c1)C(=O)c1c-2n(CCCN)c(=O)c2cc(OC)c(OC)cc12"
OUT: 3.15

* * *

- System: OVCAR-8 ovarian
- assay notes: NCI tumour cell line growth inhibition, 48 h
assay endpoint: TGI

{"columns": ["compound", "assay endpoint", "value reported"],
 "data": [
  ["CCCCNc1ncnc2c1cnn2-c1ccccc1", "TGI", "> 88.1 µM"]
]}

IN: // TGI lookup, key: "COc1ccc(OC)c2c(C(C)=O)cccc12"
OUT: > 100 µM

IN: // TGI lookup, key: "CCN(CC)c1ccc(/C=N/NC(=O)Cc2ccc(Nc3ccnc(C(F)(F)F)c3)cc2)c(O)c1"
OUT: > 100 µM

IN: // TGI lookup, key: "Nc1cccc(-c2cc(=O)c3cc4c(cc3[nH]2)OCO4)c1"
OUT: > 22.6 µM

IN: // TGI lookup, key: O=C(Nc1ccn(C2CC(O)C(COC(c3ccccc3)(c3ccccc3)c3ccccc3)O2)c(=O)n1)c1ccccc1 (configuration not stated)
OUT: 3.71 µM

IN: // TGI lookup, key: COC(=O)c1ccccc1C1CN=NC12Cc1ccc(C)cc1C2=O (configuration not stated)
OUT: > 100 µM

* * *

- Tested on: MALME-3M melanoma
- assay notes: NCI tumour cell line growth inhibition, 48 h; in the data active means GI50 below about 0.43 µM; inactive means the rest
Form entry, call: pick from True for active, False for inactive

Please review the following examples before continuing.
{"columns": ["compound", "qualitative label"],
 "data": [
  ["NC(=NCCCCCCN=C(N)/N=C(\\N)Nc1ccc(Cl)cc1)/N=C(\\N)Nc1ccc(Cl)cc1", "False"],
  ["Clc1ccc2c(NCCNc3nc(N4CCOCC4)nc4ccccc34)ccnc2c1", "False"],
  ["CCn1c(-c2nonc2N)nc2ccccc21", "False"]
]}

IN: Hello, I am checking results. What call was entered for "Cc1cc(NC(=O)NCc2ccc(N3C(N)=NC(N)=NC3(C)C)cc2)ccc1S(=O)(=O)F" ?
OUT: False

IN: Hello, I am checking results. What call was entered for "O=C(Nc1cccc(-n2ccc3c(NC(=O)c4ccccc4)ncnc32)c1)Nc1ccc(Cl)c(C(F)(F)F)c1" ?
OUT: False

IN: Hello, I am checking results. What call was entered for CN1CCCCC1CCN1c2ccccc2Sc2ccc(Br)cc21 (configuration not stated) ?
OUT: False

IN: Hello, I am checking results. What call was entered for "CN(C)CCCN1c2ccccc2Sc2ccc(C(F)(F)F)cc21" ?
OUT: False

IN: Hello, I am checking results. What call was entered for "O=C(/C=C/c1ccc(O)c(O)c1)N1CCN(c2ccc(Cl)cc2)CC1" ?
OUT: False

IN: Hello, I am checking results. What call was entered for "COc1ccc2nc3ccccc3c(NCCNCCO)c2c1" ?
OUT: True

IN: Hello, I am checking results. What call was entered for "CNC(=O)CCN1CCN(CC/C=C2\c3ccccc3Sc3ccc(Cl)cc32)CC1" ?
OUT: False

IN: Hello, I am checking results. What call was entered for "CC(=O)c1cc2c(N)c(C(=O)Nc3cccc4ccccc34)sc2nc1C" ?
OUT: False

IN: Hello, I am checking results. What call was entered for COc1ccc(-c2nsc3c2NC(=O)CC3c2ccsc2)cc1 (configuration not stated) ?
OUT: True

IN: Hello, I am checking results. What call was entered for "Cn1cc(-c2cc(-c3cn(C)c4ccccc34)[nH]n2)c2ccccc21" ?
OUT: False

* * *

- Tested on: NCI/ADR-RES ovarian
- assay notes: NCI tumour cell line growth inhibition, 48 h
assay endpoint: TGI (µM)
Numeric answer only, unit µM assumed.

Worked cases, TGI given:
{"columns": ["mol", "assayed system", "TGI [µM]"],
 "data": [
  ["COC(=O)c1c(C)nc(C)c2c1C(=O)C(Br)=C(NCc1ccccc1)C2=O", "NCI/ADR-RES ovarian", 8.16],
  ["Fc1ccccc1CN1COc2c(cc(Cl)c3cccnc23)C1", "NCI/ADR-RES ovarian", 0.54]
]}

IN: Requested read-out TGI, target or system NCI/ADR-RES ovarian, entry "OCCc1ccsc1-c1sc(-c2cc(CCO)c(-c3sc(-c4cc(CCO)c(-c5sccc5CCO)s4)cc3CCO)s2)cc1CCO"
OUT: 4.14

* * *

- Test system: UACC-62 melanoma
- assay notes: NCI tumour cell line growth inhibition, 48 h
TGI for assorted compounds
Numeric answer only, unit µM assumed.

Worked cases, TGI given:
{"columns": ["compound", "TGI / µM"],
 "data": [
  ["Cc1nc2ccc(NCCN(C)C)c3c(=O)c4ccccc4n1c23", 20.2],
  ["O=C(O)CNc1ccc2c(c1)Cc1cc(Br)ccc1-2", 76.4],
  ["N#C[S-].[La+3].c1ccc(-c2ccccn2)nc1.c1ccc(-c2ccccn2)nc1.c1ccc(-c2ccccn2)nc1", 50.3]
]}

IN: Requested read-out TGI, target or system UACC-62 melanoma, entry "O=C(C[N+]12CN3CN(CN(C3)C1)C2)c1ccc(-c2ccccc2)cc1"
OUT: 29.9

IN: Requested read-out TGI, target or system UACC-62 melanoma, entry "Cc1ccc(C2=CC(=O)/C(=C\C(=O)c3ccc(Br)cc3)O2)c(C)c1"
OUT: 22.7

IN: Requested read-out TGI, target or system UACC-62 melanoma, entry COC(=O)CC1(O)C(=O)OCc2c1cc1n(c2=O)Cc2c-1nc1ccccc1c2OC (stereo not given)
OUT: 2.29

IN: Requested read-out TGI, target or system UACC-62 melanoma, entry "Clc1ccc2c(NCCNc3nc(N4CCOCC4)nc4ccccc34)ccnc2c1"
OUT: 3.75

* * *

- Test system: DU-145 prostate
- assay notes: NCI tumour cell line growth inhibition, 48 h
assay endpoint: GI50

Worked cases, GI50 given:
{"columns": ["molecule", "assay endpoint", "value reported"],
 "data": [
  ["COC(=O)[C@@]12OC[C@]34[C@H]([C@@H](O)[C@@H]1O)[C@@]1(C)CC(=O)C(O)=C(C)[C@@H]1C[C@H]3OC(=O)[C@H](OC(=O)/C=C(\\C)C(C)C)[C@@H]24", "GI50", "20 nM"],
  ["COc1cc(C(=O)c2cnc(-c3c[nH]c4cccc(C)c34)[nH]2)cc(OC)c1OC", "GI50", "7.56 nM"],
  ["[Br][Pb]([c]1ccccc1)([c]1ccccc1)[c]1ccccc1", "GI50", "182 nM"],
  ["COc1cc(N=Nc2cc(Cc3ccc(N(C)C)cc3)c(N)cc2N(C)C)c2ncccc2c1", "GI50", "590 nM"],
  ["CC(=O)ON(OCc1ccc2ccccc2c1)C(C)=O", "GI50", "> 100000 nM"]
]}

IN: // GI50 lookup, key: "[O]=[Sn]([CH]1CCCCC1)[CH]1CCCCC1"
OUT: 259 nM

IN: // GI50 lookup, key: "O=c1c(I)c[nH]cc1I"
OUT: > 100000 nM

IN: // GI50 lookup, key: "Cc1ccc(-c2nc(NCCOCCOCCN)nc(N3CCN(c4ccccn4)CC3)n2)cc1"
OUT: 16600 nM

IN: // GI50 lookup, key: CC(C)=C[C@@H]1C[C@H](C)[C@H]2CC[C@H](C)c3c(O)c(OC4OC(C)C(O)C(O)C4O)c(C)c1c32 (stereo not given in full)
OUT: 10900 nM

IN: // GI50 lookup, key: Nc1ncn([C@H]2CC(O)[C@@H](CO)S2)c(=O)n1 (stereo not given in full)
OUT: 2270 nM
